ALK tyrosine kinase receptor (Homo sapiens, UniProt Q9UM73) data, read-out pIC50
Sequence (Q9UM73 whole entry): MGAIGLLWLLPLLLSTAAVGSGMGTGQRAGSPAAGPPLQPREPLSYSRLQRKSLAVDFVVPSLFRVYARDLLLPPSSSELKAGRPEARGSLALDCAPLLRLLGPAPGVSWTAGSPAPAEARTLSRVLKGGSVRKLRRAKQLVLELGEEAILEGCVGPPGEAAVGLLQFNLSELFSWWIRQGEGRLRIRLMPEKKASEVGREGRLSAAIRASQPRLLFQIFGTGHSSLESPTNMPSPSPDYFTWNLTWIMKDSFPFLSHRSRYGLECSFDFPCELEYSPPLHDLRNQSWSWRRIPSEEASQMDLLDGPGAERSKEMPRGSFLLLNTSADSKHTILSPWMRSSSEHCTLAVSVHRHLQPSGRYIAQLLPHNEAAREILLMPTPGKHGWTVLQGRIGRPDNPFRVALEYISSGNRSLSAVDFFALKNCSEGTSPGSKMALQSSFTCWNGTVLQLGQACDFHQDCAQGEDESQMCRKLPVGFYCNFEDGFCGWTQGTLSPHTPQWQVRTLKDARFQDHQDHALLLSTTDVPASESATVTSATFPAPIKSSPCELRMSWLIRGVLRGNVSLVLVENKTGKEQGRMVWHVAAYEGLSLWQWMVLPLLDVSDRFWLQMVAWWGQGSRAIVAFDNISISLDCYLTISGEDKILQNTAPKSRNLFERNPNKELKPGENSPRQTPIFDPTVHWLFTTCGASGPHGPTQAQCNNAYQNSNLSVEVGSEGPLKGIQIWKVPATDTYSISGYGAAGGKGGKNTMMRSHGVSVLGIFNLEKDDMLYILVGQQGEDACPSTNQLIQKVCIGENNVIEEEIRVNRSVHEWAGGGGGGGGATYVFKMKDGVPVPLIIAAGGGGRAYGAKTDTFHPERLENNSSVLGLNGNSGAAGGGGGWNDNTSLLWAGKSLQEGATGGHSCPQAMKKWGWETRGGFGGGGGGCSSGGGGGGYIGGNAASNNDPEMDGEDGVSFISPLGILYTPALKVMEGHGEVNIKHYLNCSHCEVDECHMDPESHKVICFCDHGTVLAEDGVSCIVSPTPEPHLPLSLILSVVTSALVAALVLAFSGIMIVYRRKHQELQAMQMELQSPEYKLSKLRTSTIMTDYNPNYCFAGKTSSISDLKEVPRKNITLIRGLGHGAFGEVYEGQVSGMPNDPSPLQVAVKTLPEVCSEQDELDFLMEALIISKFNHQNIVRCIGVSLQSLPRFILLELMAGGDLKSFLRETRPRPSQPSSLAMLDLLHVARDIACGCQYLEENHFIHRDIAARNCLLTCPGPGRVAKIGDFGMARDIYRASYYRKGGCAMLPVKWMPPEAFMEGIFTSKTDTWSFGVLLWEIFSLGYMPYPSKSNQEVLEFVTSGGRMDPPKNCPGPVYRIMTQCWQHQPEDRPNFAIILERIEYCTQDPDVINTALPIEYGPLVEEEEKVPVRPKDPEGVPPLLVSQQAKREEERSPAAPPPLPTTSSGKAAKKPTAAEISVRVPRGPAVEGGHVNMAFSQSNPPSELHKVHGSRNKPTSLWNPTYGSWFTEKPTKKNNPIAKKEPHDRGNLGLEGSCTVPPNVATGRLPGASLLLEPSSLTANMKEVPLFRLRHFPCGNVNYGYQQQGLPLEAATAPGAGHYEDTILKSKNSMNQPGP
// pIC50: -log10(molar conc.)

Example results:
smiles.entry	system	pIC50
c1ccc(Nc2cc3nc4ccccc4n3cn2)cc1	ALK tyrosine kinase receptor (Homo sapiens, UniProt Q9UM73)	4.28
COc1ccc(-c2ccc3nc4cncc(/C=C/c5ccccc5)n4c3c2)cc1	ALK tyrosine kinase receptor (Homo sapiens, UniProt Q9UM73)	6.19
COc1ccc(-c2cncc3nc4ccc(-c5ccc(NC(C)=O)cc5)cc4n23)cc1	ALK tyrosine kinase receptor (Homo sapiens, UniProt Q9UM73)	4.74

Would you kindly look at the next entry?
GET /values?item= "COc1ccc(-c2cncc3nc4ccc(/C=C/c5ccccc5)cc4n23)cc1" &system= ALK tyrosine kinase receptor (Homo sapiens, UniProt Q9UM73) returns pIC50: 5.46

###

system: BaF3; test: cells; conditions: Mus musculus
Description: Cytotoxicity against mouse BAF3 cells assessed as growth inhibition after 72 hrs by [3H]-thymidine incorporation assay
endpoint: pIC50
// pIC50: -log10(molar conc.)

Entry "Clc1cncc2nc3ccc(Br)cc3n12" ; pIC50 = 5.62

Entry "Brc1ccc2nc3cc(Nc4ccccc4)ncn3c2c1" ; pIC50 = 5.28

Entry "CN1CCN(c2ccc(-c3ccc4nc5cncc(-c6ccc(N7CCN(C)CC7)cc6)n5c4c3)cc2)CC1" ; pIC50 = 6.06

###

ALK tyrosine kinase receptor (Homo sapiens, UniProt Q9UM73, L1196M) data, read-out pIC50
Sequence (Q9UM73 19-1620 L1196M limits assumed): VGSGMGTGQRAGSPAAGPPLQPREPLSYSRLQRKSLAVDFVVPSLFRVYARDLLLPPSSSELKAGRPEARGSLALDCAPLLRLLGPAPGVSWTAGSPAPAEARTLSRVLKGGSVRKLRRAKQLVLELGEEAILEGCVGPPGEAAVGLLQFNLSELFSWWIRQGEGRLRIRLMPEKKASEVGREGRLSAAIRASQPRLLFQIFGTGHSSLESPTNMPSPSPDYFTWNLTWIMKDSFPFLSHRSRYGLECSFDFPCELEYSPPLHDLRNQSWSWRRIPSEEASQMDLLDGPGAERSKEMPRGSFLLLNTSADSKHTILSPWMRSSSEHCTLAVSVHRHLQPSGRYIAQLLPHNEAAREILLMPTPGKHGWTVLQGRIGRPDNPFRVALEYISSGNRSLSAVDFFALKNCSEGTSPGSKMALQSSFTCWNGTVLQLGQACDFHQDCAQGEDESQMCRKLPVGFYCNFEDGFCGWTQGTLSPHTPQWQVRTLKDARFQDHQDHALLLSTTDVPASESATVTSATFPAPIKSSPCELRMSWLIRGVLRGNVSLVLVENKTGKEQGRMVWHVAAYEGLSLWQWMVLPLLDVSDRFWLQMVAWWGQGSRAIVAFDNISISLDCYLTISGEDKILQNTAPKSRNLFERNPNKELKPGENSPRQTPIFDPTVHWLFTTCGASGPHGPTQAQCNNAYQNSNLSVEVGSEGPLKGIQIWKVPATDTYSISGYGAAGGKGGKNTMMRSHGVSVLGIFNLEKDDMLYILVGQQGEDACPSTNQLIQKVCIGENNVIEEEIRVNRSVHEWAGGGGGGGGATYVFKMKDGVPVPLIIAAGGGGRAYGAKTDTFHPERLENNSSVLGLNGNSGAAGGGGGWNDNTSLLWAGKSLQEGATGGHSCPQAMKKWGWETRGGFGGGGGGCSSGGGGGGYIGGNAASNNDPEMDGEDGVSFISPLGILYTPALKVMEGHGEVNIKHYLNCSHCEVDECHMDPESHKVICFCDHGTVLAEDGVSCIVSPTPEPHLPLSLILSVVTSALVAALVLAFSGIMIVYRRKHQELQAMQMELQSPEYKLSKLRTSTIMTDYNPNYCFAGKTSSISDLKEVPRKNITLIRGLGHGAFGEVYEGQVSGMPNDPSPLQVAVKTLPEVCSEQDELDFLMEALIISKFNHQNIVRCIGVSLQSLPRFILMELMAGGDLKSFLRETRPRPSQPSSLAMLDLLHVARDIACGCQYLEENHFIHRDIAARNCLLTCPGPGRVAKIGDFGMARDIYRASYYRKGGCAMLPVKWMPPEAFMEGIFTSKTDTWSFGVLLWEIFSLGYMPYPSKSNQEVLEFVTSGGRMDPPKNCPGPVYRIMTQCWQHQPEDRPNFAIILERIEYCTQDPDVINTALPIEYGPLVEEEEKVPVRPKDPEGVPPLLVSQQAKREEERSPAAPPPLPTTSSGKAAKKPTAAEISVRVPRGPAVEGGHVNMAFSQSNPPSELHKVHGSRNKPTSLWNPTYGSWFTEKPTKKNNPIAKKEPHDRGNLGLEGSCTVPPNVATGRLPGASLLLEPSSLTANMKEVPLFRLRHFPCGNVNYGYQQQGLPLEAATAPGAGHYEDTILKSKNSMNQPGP
// pIC50: -log10(molar conc.)

smiles.entry	pIC50
c1ccc(Nc2cc3nc4ccccc4n3cn2)cc1	5.00
COc1ccc(-c2cncc3nc4ccc(/C=C/c5ccccc5)cc4n23)cc1	5.35
O=[N+]([O-])c1cccc(Nc2cc3nc4ccccc4n3cn2)c1	4.85

GET /values?item= "COc1ccc(-c2ccc3nc4cncc(/C=C/c5ccccc5)n4c3c2)cc1" &system= ALK tyrosine kinase receptor (Homo sapiens, UniProt Q9UM73, L1196M) returns pIC50: 5.82

GET /values?item= "Brc1ccc2nc3cc(Nc4ccccc4)ncn3c2c1" &system= ALK tyrosine kinase receptor (Homo sapiens, UniProt Q9UM73, L1196M) returns pIC50: 4.31

GET /values?item= "CN1CCN(c2ccc(-c3ccc4nc5cncc(-c6ccc(N7CCN(C)CC7)cc6)n5c4c3)cc2)CC1" &system= ALK tyrosine kinase receptor (Homo sapiens, UniProt Q9UM73, L1196M) returns pIC50: 4.54
